Cited source: PubChem BioAssay

This section presents compounds with their documented z-score values.
assay: A549 cell viability effects, profiling panel, calcein-AM fluorescence, 48 h, basal (AID 1162); note: test concentration not given here
condition description: higher = more signal
Answer using only a numeral; do not append any unit.

C=C(/C(=C/C[C@@H](OC(=O)c1ccncc1)c1ccc(OCCO)cc1)c1cnc2ccccc2c1)C(C)C
0.476
CCN1C(=O)[C@H]2[C@H]3[C@H](O)[C@H](O)CC(=NOCc4ccccc4)[C@H]3CC[C@H]2C1=O
-0.803

Please examine the following record next.
Inquiry: What z-score value was documented for this compound, "CC(C)(C)N1C(=O)[C@H]2[C@H]3[C@H](O)[C@H](O)CC(=NOCc4ccccc4)[C@@H]3CC[C@H]2C1=O" ?
Reply text: 0.366

----------
measured target: Torsin-1A-interacting protein 1 (Homo sapiens)
assay: LAP1 binders from COS7 cell lysate, primary screen, small-molecule microarray, 635/667 nm fluorescence (AID 1116)
condition description: COS7-hLAP1 lysate binding, 635 nm fluorescence, higher = more signal
measured endpoint: composite z-score
The response must contain the number and no unit.

Example entries and their recorded answers appear below.
CCCC[C@@H](O)C1=C(C)C[C@H]2C(=O)N(Cc3ccccc3)C(=O)[C@H]2[C@H]1CO
0.503
NCCCCCNC(=O)[C@@H]1C[C@@H]2C(=O)N3CCC[C@H]3C(=O)N2[C@@H]1c1cccc(OCCO)c1
1.72
C=CCOC(=O)[C@H]1[C@@H]2C(=O)O[C@@H](c3ccccc3)[C@@H](c3ccccc3)N2[C@@H](c2ccc(OCCOC(=O)[C@H]3C[C@H]4C(=O)N[C@@H](Cc5ccccc5)C(=O)N4[C@H]3c3ccc(O)cc3)cc2)[C@]12C(=O)Nc1ccccc12
0.985

In the following, a different compound is considered.
Inquiry: Given O[C@@H](Cc1ccccc1)[C@H]1C2C=CCCC(c3ccccc3)=C2CN1Cc1cccc(Cl)c1 (some centres undefined) , state its recorded composite z-score.
Reply text: 0.464

----------
assay: basal S. cerevisiae growth modulation, no modifier, primary screen, OD600, strain BY4716, 24 h, basal condition (AID 1173)
condition description: OD600, 24 h, higher = more signal, called active from +8 up or from −8 down
Activity calls are given as the source filed them.
Catalogue of z-score readings, one per entry.

C[C@@H]1CC[C@H]2C(=O)O[C@H](COc3ccc(C(C)(C)C)cc3)CN2[C@H]1c1ccc(Br)cc1
0.789 (inactive)

Inquiry: Sample "CN(C)CCCNC(=O)[C@@H]1c2ccccc2C(=O)N(Cc2ccccc2)[C@H]1c1ccc(CO)cc1" — what was its z-score?
Reply text: 0.0396 (inactive)

Inquiry: Check "CCc1cc2c(nc1CC)CCN(CCC(C)=NO[C@@H](C)c1cc(-c3c(C)cc(C)cc3C)no1)C2" too.
Reply text: -2.75 (inactive)

Inquiry: Another: CCOC(=O)[C@H](Cc1ccccc1)NC(=O)CCC1CC(OC(=O)NCc2ccc3c(c2)OCO3)CC2(CCCC(COC(=O)NCC3CCCCC3)O2)O1 (some centres undefined)
Reply text: -0.653 (inactive)

----------
composite z-score values, listed per item
measured target: Left-right determination factor 2 (Homo sapiens) (UniProt O00292)
Sequence (O00292 whole entry, looked up): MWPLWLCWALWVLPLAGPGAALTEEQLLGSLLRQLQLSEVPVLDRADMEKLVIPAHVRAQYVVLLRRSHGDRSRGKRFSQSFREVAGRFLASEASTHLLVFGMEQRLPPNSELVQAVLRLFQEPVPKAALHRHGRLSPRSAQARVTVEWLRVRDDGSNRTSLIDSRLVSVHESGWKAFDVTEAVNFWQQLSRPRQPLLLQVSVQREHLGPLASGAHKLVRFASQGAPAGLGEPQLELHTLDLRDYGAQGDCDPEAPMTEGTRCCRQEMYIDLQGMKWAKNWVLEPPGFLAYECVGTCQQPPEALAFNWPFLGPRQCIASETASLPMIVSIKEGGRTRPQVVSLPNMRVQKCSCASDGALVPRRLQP
assay: LEFTY2 binders on small-molecule microarrays, primary screen, biochemical, small-molecule microarray, 635 nm fluorescence scan (AID 1110)
condition description: LEFTY2 binding, higher = more signal
Please reply with the value in numeric form only.

Study these solved cases before continuing.
CC(C)(C)OC(=O)CC[C@]1(C(=O)NCc2ccccc2)N=C(c2ccc(OCCCO)cc2)O[C@H]1c1ccccc1
-0.598
CC(C)(C)N1C(=O)[C@H]2[C@H]3[C@H](O)[C@H](O)CC(=NO[C@@H]4O[C@H](CO)[C@@H](O)[C@H](O)[C@H]4O)[C@@H]3CC[C@H]2C1=O
0.761
COc1ccc(-c2nc3c(c4c2C[C@H](C)OC4)CN(CCC(C)C)CC3)cc1
0.6

// next entry
Inquiry: // composite z-score lookup, key: "CCOC(=O)NN=C1C[C@@H](O)[C@@H](O)[C@@H]2[C@@H]3C(=O)N(C4CCCCC4)C(=O)[C@@H]3CC[C@H]12"
Reply text: 0.511

----------
assay: small-molecule binders of probe aNOTCH3, primary screen, biochemical, small-molecule microarray, 635/667 nm fluorescence (AID 1120);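 note: probe is a biotin-tagged antibody raised against NOTCH3 rather than NOTCH3 protein; score merges spot fluorescence near 667 nm with spot signal to noise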
condition description: higher = more signal
measured endpoint: composite z-score
Reply with the value as a number alone.

Previously resolved entries follow.
COC(=O)[C@@]1(Cc2ccc(F)cc2)[C@H]2c3cc(C(=O)N(C)C)n(Cc4ccc(OC)c(OC)c4)c3C[C@H]2CN1C(=O)c1ccccc1
0.194
C=CC[C@@H]1C=C[C@H](ON=C[C@@H](OC)[C@H](C)C=CCC(=O)OC)[C@@H](CO)O1
0.062

Inquiry: Which composite z-score value belongs to "CCCC[C@@H](O)C1=C(C)C[C@H]2C(=O)N(Cc3ccccc3)C(=O)[C@H]2[C@H]1CO" ?
Reply text: -0.0175

Inquiry: Consider next the molecule "COc1ccc([Si](C)(C)[C@H]2[C@H](CC(=O)N3CCC[C@H]3CO)O[C@@]3(C(=O)N(Cc4cccc(N5C(=O)COc6ccccc65)c4)c4ccccc43)[C@@H]2C)cc1" in the same way.
Reply text: 0.0293

Inquiry: Please give the result for "CCCC=C(CCC)[C@@H](NC(=O)c1ccc(-c2ccccc2)cc1)c1ccc(C(=O)OC)cc1" too.
Reply text: 0.197

Inquiry: // next record "COc1ccc(O[C@H]2C=C[C@@H](c3ccccc3)O[C@@H]2COC(=O)CCC(C)=NO[C@@H](C)c2cc(-c3c(C)cc(C)cc3C)no2)cc1"
Reply text: -0.187

Inquiry: And the next one, CC(CCN1CCc2nc(-c3ccccc3)c(-c3ccccc3)cc2C1)=NOC(C)CN1CCCCc2nc(C)c(C)cc21 (configuration not stated) ?
Reply text: 0.0379

----------
measured target: Carbonic anhydrase 2 (Homo sapiens)
assay: CAII small-molecule binders, profiling panel, biochemical, small-molecule microarray, Alexa647-labelled CAII (AID 1122)
condition description: CAII-A647 binding fluorescence, higher = more signal
Recorded composite z-score by entry
Keep the answer to the number alone.

Some compounds with recorded composite z-score:
CC1(C)OCC(C(O)C2=CCCCC2=O)CO1 (centres undefined)
0.548
COC(=O)[C@H](C)NC(=O)[C@@H](C)CO
0.516
CCOC(=O)C1=CC[C@H]2C(=O)N(CC)C(=O)[C@@H]12
0.522

Inquiry: Consider the compound shown here: "CC(CCN1CCc2nc(-c3ccccc3)c(-c3ccccc3)cc2C1)=NOC[C@@H](C)[C@H](OCc1ccccc1)C(C)C" What is its recorded composite z-score?
Reply text: -0.0642

----------
assay: MM1S myeloma cell viability, profiling panel, resazurin fluorescence, basal, 24 h, PK04 Diversity Set (AID 1174);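 note: MM1S multiple myeloma cell line; test concentration not given here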
condition description: higher = more signal, called active from +8 up or from −8 down
This section presents molecules with their documented z-score values.
Please respond with just the number, no unit label.

Completed entries (count: 5):
C=C(/C(=C/C[C@H](OC(C)=O)c1ccc(OCCO)cc1)c1cnc2ccccc2c1)C(C)C
-0.97
Cc1ccc(C2CC=C(C(=O)O)CN2S(=O)(=O)c2ccc(C)cc2)cc1 (configuration not stated)
-0.955
CC(C)=NOCc1ccc(-c2cc(-c3ccccc3)no2)cc1
-0.284
COc1ccccc1CN1C(=O)c2ccccc2[C@@H](C(=O)NCC(F)(F)F)[C@@H]1c1ccc(CO)cc1
-1.15
O=C1CCCC=C1C(O)CCOCc1ccccc1 (configuration not stated)
-0.43

Inquiry: Would you kindly share the measured z-score for "CC=CC1=C(CO)[C@H](O)[C@H]2O[C@H]2[C@H]1O" ?
Reply text: -0.667

Inquiry: Queued: "CC(=O)OC[C@H]1O[C@H](C#CCCCc2ccccc2)C=C[C@@H]1OC(C)=O"
Reply text: -4.16

Inquiry: For "COCCCNC(=O)[C@@]1(CCS(=O)(=O)c2ccccc2)N=C(c2ccc(OCCCO)cc2)O[C@H]1c1ccccc1" then?
Reply text: 0.745

Inquiry: Entry to check: "C[C@H]1Cc2c(-c3ccccc3)nc3c(c2CO1)CN(CCOc1ccccc1)CC3"
Reply text: 0.0723

Inquiry: # repeat for "O=C1[C@H]2[C@H]3[C@H](O)[C@H](O)CC(=NOCc4ccccc4)[C@@H]3CC[C@H]2C(=O)N1C1CCCCC1"
Reply text: -0.321

----------
measured target: Homeobox protein Hox-A13 (Mus musculus) (UniProt Q62424)
Sequence (Q62424 whole entry, looked up): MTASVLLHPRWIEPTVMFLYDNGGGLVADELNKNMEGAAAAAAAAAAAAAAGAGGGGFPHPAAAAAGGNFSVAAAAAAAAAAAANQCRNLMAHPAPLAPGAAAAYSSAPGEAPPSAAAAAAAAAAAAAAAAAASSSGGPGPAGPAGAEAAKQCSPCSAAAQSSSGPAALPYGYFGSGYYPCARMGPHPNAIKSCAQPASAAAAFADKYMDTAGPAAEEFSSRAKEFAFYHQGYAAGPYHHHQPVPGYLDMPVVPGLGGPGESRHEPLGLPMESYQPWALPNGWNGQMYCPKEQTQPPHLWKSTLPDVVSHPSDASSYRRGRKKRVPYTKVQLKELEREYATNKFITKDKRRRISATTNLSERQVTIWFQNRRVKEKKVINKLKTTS
assay: inhibitors of HoxA13-DNA binding, primary screen, biochemical, fluorescence polarization, labeled oligonucleotide (AID 1185)
condition description: 15 min, higher = more signal, called active from +8 up or from −8 down
z-score: recorded values
Answer field: number only, no words.

Look over these answered cases.
C=CC[C@@H]1C=C[C@H](ON=C[C@@H](OC)[C@H](C)C=CCC(=O)OC)[C@@H](CO)O1
-0.413
O=C1C2=CC[C@H]3C(=O)N(Cc4ccc5c(c4)OCO5)C(=O)[C@H]3[C@H]2[C@H](O)[C@@H]2O[C@H]12
-0.229
O=C(NN=C1C[C@@H](O)[C@@H](O)[C@@H]2[C@@H]3C(=O)N(c4cccc(Oc5ccccc5)c4)C(=O)[C@@H]3CC[C@@H]12)OCc1ccccc1
-4.96
CC(CCC(=O)OC[C@H]1O[C@H](C#Cc2ccccc2)C=C[C@@H]1Oc1ccc(C)cc1)=NO[C@@H](C)c1cn([C@H](CO)Cc2ccccc2)nn1
-2.38
C=CCOC(=O)[C@H]1[C@@H]2C(=O)O[C@@H](c3ccccc3)[C@@H](c3ccccc3)N2[C@@H](c2ccc(OCCOC(=O)[C@H]3C[C@H]4C(=O)N[C@@H](Cc5ccccc5)C(=O)N4[C@H]3c3ccc(O)cc3)cc2)[C@]12C(=O)Nc1ccccc12
1.08
CN(C)c1ccc(C(O)C2C=CC3C(=O)N(c4ccccc4)C(=O)C3N2Nc2ccccc2F)cc1 (stereo not drawn)
-5.07
CC1CC/C=C\[C@H]2OC34C=CCN(Cn5nnc6ccccc65)C(=O)[C@H]3N(CCO)C(=O)[C@@H]4C2C(=O)O1 (stereo partly drawn)
-5.38

Inquiry: Look up z-score for this compound: "COc1ccc(CCNC(=O)[C@@H]2c3ccccc3C(=O)N(c3ccc(C)cn3)[C@H]2c2ccc(CO)cc2)cc1"
Reply text: -1.78
